Just for reference, patent US10323027B2 is where these values come from.

# measured_target: human M1 receptor (hCHRM1) (Homo sapiens, UniProt P11229)
# Construct: expressed in transfected cells
# Sequence (P11229 1-460): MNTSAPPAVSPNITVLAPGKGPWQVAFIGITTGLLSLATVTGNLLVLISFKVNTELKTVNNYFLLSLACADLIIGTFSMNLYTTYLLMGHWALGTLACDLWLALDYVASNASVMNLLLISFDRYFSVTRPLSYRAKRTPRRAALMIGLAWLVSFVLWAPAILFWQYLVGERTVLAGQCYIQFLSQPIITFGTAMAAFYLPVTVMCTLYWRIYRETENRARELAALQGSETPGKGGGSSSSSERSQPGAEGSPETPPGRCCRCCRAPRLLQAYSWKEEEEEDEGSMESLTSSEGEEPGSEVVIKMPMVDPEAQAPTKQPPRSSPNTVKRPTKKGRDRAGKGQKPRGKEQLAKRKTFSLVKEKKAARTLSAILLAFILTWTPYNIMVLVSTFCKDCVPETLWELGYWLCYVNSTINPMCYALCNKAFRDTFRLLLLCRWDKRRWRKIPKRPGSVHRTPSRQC
# protocol_description: Measurement of M1 receptor positive allosteric modulator (M1PAM) activity, Ca2+ fluorescence by FLIPRtetra (Experimental Example 1)
# Format: cell-based
# condition_parameters: inflection point of concentration-dependent curve, in presence of acetylcholine at EC20 (0.8-1.0 nM), CHO-K1 cells expressing hCHRM1, read-out: IP value
Response field label: string, one of y (EC50 strictly below 10 nM) or n.

>>> df
                                    compound                           measured_target  cat
 0  Cc1ccc(Cc2cc3c(cc2C)OCN([C@H]2CCCC[C@@H]2O)C3=O)cn1 (single isomer, unassigned) [Example 28]  human M1 receptor (hCHRM1) (Homo sapiens, UniProt P11229)    n
 1  COc1ccc(Cc2cc3c(c4ccccc24)OCN([C@H]2COCC[C@@H]2O)C3=O)cn1  human M1 receptor (hCHRM1) (Homo sapiens, UniProt P11229)    y
 2  Cc1c(Cc2ccc(-n3cccn3)cc2)cc2c(c1F)OCN([C@H]1CCC[C@@H]1O)C2=O [Example 5]  human M1 receptor (hCHRM1) (Homo sapiens, UniProt P11229)    y
 3  Cc1c(Cc2ccc(Cl)nc2)cc2c(c1C)OCN([C@H]1CCC[C@@H]1O)C2=O  human M1 receptor (hCHRM1) (Homo sapiens, UniProt P11229)    y
 4  COc1c(Cc2ccc(-n3cccn3)nc2)cc2c(c1F)OCN([C@H]1CCC[C@@H]1O)C2=O (relative stereo) [Example 15]  human M1 receptor (hCHRM1) (Homo sapiens, UniProt P11229)    n
 5  O=C1c2cc(Cc3ccc(Cl)nc3)c3ccccc3c2OCN1[C@H]1COCC[C@@H]1O [Example 4]  human M1 receptor (hCHRM1) (Homo sapiens, UniProt P11229)    y
 6  N#CC1CCN(Cc2cc3c(c4ccccc24)OCN([C@H]2CCC[C@@H]2O)C3=O)CC1  human M1 receptor (hCHRM1) (Homo sapiens, UniProt P11229)    n
 7  Cc1c(Cc2ccc(-n3cccn3)cc2)cc2c(c1C)OCN([C@H]1COCC[C@@H]1O)C2=O  human M1 receptor (hCHRM1) (Homo sapiens, UniProt P11229)    y
 8  Cc1ccc(Cc2cc3c(cc2C)OCN([C@H]2CCC[C@@H]2O)C3=O)cn1  human M1 receptor (hCHRM1) (Homo sapiens, UniProt P11229)    n
 9  COc1ccc(Cc2cc3c(cc2C)OCN([C@H]2CCC[C@@H]2O)C3=O)cc1  human M1 receptor (hCHRM1) (Homo sapiens, UniProt P11229)    n
10  Cc1cc2c(cc1Cc1ccc(-n3cccn3)nc1)C(=O)N([C@H]1CCC[C@@H]1O)CO2  human M1 receptor (hCHRM1) (Homo sapiens, UniProt P11229)    n
11  Cc1ccc(Cc2cc3c(c(F)c2C)OCN([C@H]2CCC[C@@H]2O)C3=O)cn1  human M1 receptor (hCHRM1) (Homo sapiens, UniProt P11229)    n
12  Cc1c(Cc2ccc(-n3cccn3)cc2)cc2c(c1F)OCN(CC1CCCO1)C2=O (stereo not drawn)  human M1 receptor (hCHRM1) (Homo sapiens, UniProt P11229)    n
13  Cc1c(Cc2ccc(-c3ccn(C)n3)nc2)cc2c(c1F)OCN([C@H]1CCC[C@@H]1O)C2=O  human M1 receptor (hCHRM1) (Homo sapiens, UniProt P11229)    y
14  COc1c(Cc2ccc(-n3cccn3)nc2)cc2c(c1F)OCN([C@H]1CCC[C@@H]1O)C2=O (single isomer, unassigned) [Example 55]  human M1 receptor (hCHRM1) (Homo sapiens, UniProt P11229)    n
15  O=C1c2cc(CN3CCSCC3)c3ccccc3c2OCN1[C@H]1CCC[C@@H]1O  human M1 receptor (hCHRM1) (Homo sapiens, UniProt P11229)    n
16  C=Cc1ccc(Cc2cc3c(c4ccccc24)OCN([C@H]2COCC[C@@H]2O)C3=O)cn1  human M1 receptor (hCHRM1) (Homo sapiens, UniProt P11229)    y
17  Cc1cc2c(cc1Cc1ccc(-c3cn(C)nn3)nc1)C(=O)N(CC1CCCO1)CO2 (stereo not drawn)  human M1 receptor (hCHRM1) (Homo sapiens, UniProt P11229)    n
